A collection of compounds and their measured inhibition at 20 µM
- System: HepG2 (liver hepatocellular carcinoma)
- experimental-protocol: CCK-8 antiproliferative assay, HepG2
- Type: cell-based
- settings: Homo sapiens, 48 h, CCK8, mean of three independent experiments, NA = no activity, read-out: Inhibitory Ratio (Mean% ± SD%) HepG2
Only the number, expressed in %, is required.

Q) What does the data say about its inhibition at 20 µM? Entry: CC(O)C1CCC2C3CC=C4C(C)(C)c5nc(C(=O)Nc6ccccc6Cl)cnc5CC4(C)C3CCC12C (stereo not shown) [Compound 12h]
A) 21.9

Q) What does the data say about its inhibition at 20 µM? Entry: CC(O)C1CCC2C3CC=C4C(C)(C)c5nc6ccc([N+](=O)[O-])cc6nc5CC4(C)C3CCC12C (stereo not shown) [Compound 10m]
A) 18.2

Q) What does the data say about its inhibition at 20 µM? Entry: CC(O)C1CCC2C3CC=C4C(C)(C)c5nc(C(=O)Nc6cccc(F)c6)cnc5CC4(C)C3CCC12C (stereo not shown) [Compound 12f]
A) 12.8

Q) What does the data say about its inhibition at 20 µM? Entry: CC1(C)C2=CCC3C(CC[C@@]4(C)C3CC[C@@H]4C(=O)O)[C@@]2(C)Cc2nc3ccccc3nc21 (stereo partly shown) [Compound 5b]
A) 7.24

Q) What does the data say about its inhibition at 20 µM? Entry: CC(O)C1CCC2C3CC=C4C(C)(C)c5nc(C(=O)NCCc6ccccc6)cnc5CC4(C)C3CCC12C (stereo not shown) [Compound 12n]
A) 55.4

Q) What does the data say about its inhibition at 20 µM? Entry: Cc1ccc(NC(=O)c2cnc3c(n2)C(C)(C)C2=CCC4C(CCC5(C)C(C(C)O)CCC45)C2(C)C3)cc1 (stereo not shown) [Compound 12d]
A) 16.3

Q) What does the data say about its inhibition at 20 µM? Entry: CC(O)C1CCC2C3CC=C4C(C)(C)c5nc(C(=O)Nc6cccc(Cl)c6)cnc5CC4(C)C3CCC12C (stereo not shown) [Compound 12i]
A) 15.9

----------
A collection of compounds and their measured inhibition at 20 µM
- System: MCF-7 (breast carcinoma)
- experimental-protocol: CCK-8 antiproliferative assay, MCF-7
- Format: cell-based
- settings: Homo sapiens, MCF7, 48 h, CCK8, mean of three independent experiments, NA = no activity, read-out: Inhibitory Ratio (Mean% ± SD%) MCF-7
- Experimental: All the thirty-six target derivatives (5a–5f, 10a–10o, and 12a–12o) were screened for antiproliferative activities against three human cancer cell lines (MCF-7, PC-3, and HepG2) and cytotoxicity on a normal human cell (THLE-2) at the concentration of 20 μM by using the CCK8 assay. […]
Only the number, expressed in %, is required.

Some entries whose results are on file:
INSERT INTO results (compound, property, reading) VALUES
  ('CC(O)C1CCC2C3CC=C4C(C)(C)c5nc(C(=O)Nc6ccc(F)cc6)cnc5CC4(C)C3CCC12C (stereo not shown) [Compound 12g]', 'inhibition at 20 µM', 33.4),
  ('CC(O)C1CCC2C3CC=C4C(C)(C)c5nc(C(=O)Nc6ccccc6F)cnc5CC4(C)C3CCC12C (stereo not shown) [Compound 12e]', 'inhibition at 20 µM', 3.28),
  ('COc1ccccc1NC(=O)c1cnc2c(n1)C(C)(C)C1=CCC3C(CCC4(C)C(C(C)O)CCC34)C1(C)C2 (stereo not shown) [Compound 12k]', 'inhibition at 20 µM', 17.7),
  ('CC(O)C1CCC2C3CC=C4C(C)(C)c5nc6cc(Br)ccc6nc5CC4(C)C3CCC12C (stereo not shown) [Compound 10h]', 'inhibition at 20 µM', 21.2),
  ('Cc1cccc(NC(=O)c2cnc3c(n2)C(C)(C)C2=CCC4C(CCC5(C)C(C(C)O)CCC45)C2(C)C3)c1 (stereo not shown) [Compound 12c]', 'inhibition at 20 µM', 3.57);

Q) What does the data say about its inhibition at 20 µM? Entry: CC1(C)C2=CCC3C(CC[C@@]4(C)C3CC[C@@H]4C(=O)O)[C@@]2(C)Cc2nc3cc(O)ccc3nc21 (stereo partly shown)
A) 6.57

Q) What does the data say about its inhibition at 20 µM? Entry: CC(O)C1CCC2C3CC=C4C(C)(C)c5nc(C(=O)Nc6ccc(Cl)cc6)cnc5CC4(C)C3CCC12C (stereo not shown) [Compound 12j]
A) 24.9

Q) What does the data say about its inhibition at 20 µM? Entry: CC(O)C1CCC2C3CC=C4C(C)(C)c5nc6ccccc6nc5CC4(C)C3CCC12C (stereo not shown) [Compound 10b]
A) 9.95

Q) What does the data say about its inhibition at 20 µM? Entry: CC1(C)C2=CCC3C(CC[C@@]4(C)C3CC[C@@H]4C(=O)O)[C@@]2(C)Cc2nc3ccc(O)cc3nc21 (stereo partly shown)
A) 18.4

Q) What does the data say about its inhibition at 20 µM? Entry: COc1ccc2nc3c(nc2c1)CC1(C)C(=CCC2C1CCC1(C)C(C(C)O)CCC21)C3(C)C (stereo not shown) [Compound 10k]
A) 11.2

Q) What does the data say about its inhibition at 20 µM? Entry: COc1ccc(NC(=O)c2cnc3c(n2)C(C)(C)C2=CCC4C(CCC5(C)C(C(C)O)CCC45)C2(C)C3)cc1 (stereo not shown) [Compound 12m]
A) 20

----------
- Test system: HepG2 (liver hepatocellular carcinoma)
- experimental-protocol: CCK-8 antiproliferative assay, HepG2
- Type: cell-based
- settings: Homo sapiens, 48 h, CCK8, mean of three independent experiments, NA = no activity, read-out: Inhibitory Ratio (Mean% ± SD%) HepG2
A collection of compounds and their measured inhibition at 20 µM
Only the number, expressed in %, is required.

Some entries whose results are on file:
INSERT INTO measurements (compound, property, reading) VALUES
  ('CC(O)C1CCC2C3CC=C4C(C)(C)c5nc6ccc(Br)cc6nc5CC4(C)C3CCC12C (stereo not shown) [Compound 10g]', 'inhibition at 20 µM', 11.7),
  ('COc1ccccc1NC(=O)c1cnc2c(n1)C(C)(C)C1=CCC3C(CCC4(C)C(C(C)O)CCC34)C1(C)C2 (stereo not shown) [Compound 12k]', 'inhibition at 20 µM', 12.9),
  ('COc1cccc(NC(=O)c2cnc3c(n2)C(C)(C)C2=CCC4C(CCC5(C)C(C(C)O)CCC45)C2(C)C3)c1 (stereo not shown) [Compound 12l]', 'inhibition at 20 µM', 12),
  ('CC(O)C1CCC2C3CC=C4C(C)(C)c5nc6cc(Br)ccc6nc5CC4(C)C3CCC12C (stereo not shown) [Compound 10h]', 'inhibition at 20 µM', 13.1),
  ('CC(O)C1CCC2C3CC=C4C(C)(C)c5nc6cc([N+](=O)[O-])ccc6nc5CC4(C)C3CCC12C (stereo not shown) [Compound 10n]', 'inhibition at 20 µM', 18.7);

Q) Checklist item: inhibition at 20 µM tested on HepG2 (liver hepatocellular carcinoma), entry COc1ccc(NC(=O)c2cnc3c(n2)C(C)(C)C2=CCC4C(CCC5(C)C(C(C)O)CCC45)C2(C)C3)cc1 (stereo not shown) [Compound 12m] , value?
A) 20.3

Q) Checklist item: inhibition at 20 µM tested on HepG2 (liver hepatocellular carcinoma), entry CC(O)C1CCC2C3CC=C4C(C)(C)c5nc(C(=O)Nc6ccccc6F)cnc5CC4(C)C3CCC12C (stereo not shown) [Compound 12e] , value?
A) 17.6

----------
A collection of compounds and their measured inhibition at 20 µM
- Test system: THLE-2 (normal human cells)
- experimental-protocol: CCK-8 cytotoxicity on normal cells, THLE-2
- Type: cell-based
- settings: 20 μM, 48 h, CCK8, NA = no activity, read-out: Inhibitory Ratio (Mean% ± SD%) THLE-2
Only the number, expressed in %, is required.

Some entries whose results are on file:
INSERT INTO assay_data (compound, property, reading) VALUES
  ('Cc1ccc(NC(=O)c2cnc3c(n2)C(C)(C)C2=CCC4C(CCC5(C)C(C(C)O)CCC45)C2(C)C3)cc1 (stereo not shown) [Compound 12d]', 'inhibition at 20 µM', 18.2),
  ('CC(O)C1CCC2C3CC=C4C(C)(C)c5nc6ccccc6nc5CC4(C)C3CCC12C (stereo not shown) [Compound 10b]', 'inhibition at 20 µM', 4.35),
  ('CC1(C)C2=CCC3C(CC[C@@]4(C)C3CC[C@@H]4C(=O)O)[C@@]2(C)Cc2nc3ccccc3nc21 (stereo partly shown)', 'inhibition at 20 µM', 12.6);

Q) What does the data say about its inhibition at 20 µM? Entry: COc1ccc2nc3c(nc2c1)CC1(C)C(=CCC2C1CCC1(C)C(C(C)O)CCC21)C3(C)C (stereo not shown) [Compound 10k]
A) 3.54

----------
- Test system: HepG2 (liver hepatocellular carcinoma)
- experimental-protocol: CCK-8 antiproliferative assay, HepG2
- Assay type: cell-based
- settings: Homo sapiens, 48 h, CCK8, mean of three independent experiments, NA = no activity, read-out: Inhibitory Ratio (Mean% ± SD%) HepG2
property: inhibition at 20 µM (%)
Only the number, expressed in %, is required.

INSERT INTO results (compound, assay_system, reading) VALUES
  ('CC(O)C1CCC2C3CC=C4C(C)(C)c5nc6cc(Cl)ccc6nc5CC4(C)C3CCC12C (stereo not drawn) [Compound 10f]', 'HepG2 (liver hepatocellular carcinoma)', 32.6);

Q) What does the data say about its inhibition at 20 µM? Entry: CC(O)C1CCC2C3CC=C4C(C)(C)c5nc(C(=O)NC6CCCCC6)cnc5CC4(C)C3CCC12C (stereo not drawn) [Compound 12o]
A) 24.1
